Test system: K-562 leukemia
Test: NCI tumour cell line growth inhibition, 48 h
quantity.kind: TGI

> print(dat)
                                    molecule  quantity.kind  result.value
 1  CC1=C2C(=O)O[C@@H](c3ccoc3)[C@]2(C)CCC1=O            TGI      > 100 µM
 2  O/N=C1/C(=C/c2ccc(F)cc2)CCCC1C(NO)c1ccc(F)cc1 (configuration not stated)            TGI      > 100 µM
 3      Cc1ccc(S(=O)(=O)N2CCCSCCSCCCSCC2)cc1            TGI      > 100 µM
 4   O=C(O)CN(c1ccc(Cl)cc1)S(=O)(=O)c1ccccc1            TGI      > 100 µM
 5  Cc1cc2nc(N3C(=O)/C(=C/c4cccc([N+](=O)[O-])c4)N=C3c3ccccc3)sc2cc1C            TGI      > 100 µM
 6  COC(=O)C1Cc2ccc(C)cc2C1=O (configuration not stated)            TGI      > 100 µM
 7  O=C(NCCN1C(=O)CN=C(c2ccc(Cl)cc2)c2cc(Cl)ccc21)OCc1ccccc1            TGI       31.1 µM
 8  CCOc1ccc(N2C(=O)C3c4[nH]c5ccccc5c4C4CCC(C(C)(C)C)CC4C3C2=O)cc1 (configuration not stated)            TGI      > 100 µM
 9  Cc1cc(S(N)(=O)=O)c(SCc2nc(N)nc(N(C)C)n2)cc1Cl            TGI       > 10 µM
10  CC(Cl)(/C=C/Cl)C(Cl)/C=C/C(Cl)(CCl)CBr (configuration not stated)            TGI       14.2 µM

Request: API: value(readout=TGI, system=K-562 leukemia) for record N#Cc1ccccc1NC(=O)C(=O)C(C(=O)c1ccccc1-c1ccccc1)C1OC(=O)c2ccccc21 (configuration not stated)
Result: > 100 µM

Request: API: value(readout=TGI, system=K-562 leukemia) for record `CCCCN(CCCC)C(=O)C(=O)CC(=O)c1ccc(Br)cc1`
Result: > 100 µM

---

Each record here notes measured TGI.
Test system: PC-3 prostate
Test: NCI tumour cell line growth inhibition, 48 h

Completed entries (count: 6):
> print(dat)
                                   compound  result.value
1  O=C(CCCc1c[nH]c2ccccc12)NC1CC(=O)c2c(Br)sc(Br)c21 (centres undefined)       75.7 µM
2  O=C1C(C(O)(C(F)(F)Cl)C(F)(F)Cl)CCC1C(O)(C(F)(F)Cl)C(F)(F)Cl (centres undefined)       > 10 µM
3  CC(=O)OCC1OC(Nc2ccc3nc(C)n(-c4cccc(C)c4)c(=O)c3c2)C(OC(C)=O)C(OC(C)=O)C1OC(C)=O (centres undefined)     > 62.5 µM
4  CCCCCCCCCCCCCCCCCCNC(=O)[C@H]1CSC(c2ccc(OC)c(F)c2)N1 (some centres undefined)       28.3 µM
5  O=C(O)c1cccc(S(=O)(=O)NN2C(=O)CSC2c2ccccc2)c1 (centres undefined)      > 100 µM
6  O=C1c2cc3c(cc2-c2c1c1cc(Cl)c(Cl)cc1c(=O)n2CCCn1ccnc1)OCO3      > 100 µM

Request: Which TGI value is on record for `O=C(Nc1ccncc1)C(=O)c1cn(S(=O)(=O)c2ccc(Br)cc2)c2ccccc12` ?
Result: > 100 µM

Request: Which TGI value is on record for `Cc1cc(S(N)(=O)=O)c(SCc2nc(N)nc(N(C)C)n2)cc1Cl` ?
Result: > 10 µM

Request: Which TGI value is on record for `Cc1c2c(c(C)n1-c1ccccc1)C(=O)N(CCSC(=N)N)C2=O` ?
Result: > 100 µM
